Every entry's value here was drawn from paper PMC12217109.

Tested on: HeLa nuclear KDACs
assay.notes: Fluor-de-Lys HDAC fluorometric activity assay with HeLa nuclear extract
Format: biochemical
conditions.used: concentration inhibiting HDAC activity by 20%; read-out: HDAC Inhibition IC20
endpoint.label: IC20 (µM)
One number for each entry, in µM.

Here's what some known entries look like.
item.smiles: C=C(CN1CCN(c2ccccc2C(F)(F)F)CC1)c1ccc(C(=O)Nc2ccccc2N)cc1
assay.value: 1.5

item.smiles: C=C(CN1CCN(c2cccc(C(F)(F)F)n2)CC1)c1ccc(C(=O)Nc2ccccc2N)cc1
assay.value: 0.8

item.smiles: C=C(CN1CCN(c2ccc(C(F)(F)F)cc2)CC1)c1ccc(C(=O)Nc2ccccc2N)cc1
assay.value: 5.8

Below: the item to evaluate.
INPUT: Respond only with IC20 recorded for "C=C(CN1CCN(c2cccc(C(F)(F)F)c2)CC1)c1ccc(C(=O)Nc2ccccc2N)cc1"
OUTPUT: 5

----------
Test system: ACHN
assay.notes: NCI-60 cytotoxicity screen
Assay type: cell-based
conditions.used: Homo sapiens, NCI-60, 48 h, renal
I'd appreciate it if you marked entries satisfied when IC50 is lower than 2 µM and not satisfied when it is not.

compound: Nc1ccccc1NC(=O)c1ccc(CNC(=O)OCc2cccnc2)cc1 [Compound 1, Entinostat, reference compound]
test.target: ACHN
label: not satisfied
--
compound: C=C(CN1CCN(c2cccc(C(F)(F)F)n2)CC1)c1ccc(C(=O)Nc2ccccc2N)cc1
test.target: ACHN
label: not satisfied
--
compound: C=C(CN1CCN(c2ccccc2C(F)(F)F)CC1)c1ccc(C(=O)Nc2ccccc2N)cc1
test.target: ACHN
label: not satisfied
--
compound: C=C(CN1CCN(c2ccccn2)CC1)c1ccc(C(=O)Nc2ccccc2N)cc1
test.target: ACHN
label: satisfied
--
compound: C=C(CN1CCN(c2cccc(C(F)(F)F)c2)CC1)c1ccc(C(=O)Nc2ccccc2N)cc1
test.target: ACHN
label: satisfied

Now look at this one.
INPUT: A record lists "C=C(CN1CCN(c2ccc(C(F)(F)F)cc2)CC1)c1ccc(C(=O)Nc2ccccc2N)cc1" . Is its IC50 below 2 µM?
OUTPUT: not satisfied

----------
System: HT29
assay.notes: NCI-60 cytotoxicity screen
Format: cell-based
conditions.used: Homo sapiens, HT-29; NCI-60, 48 h, colon
I'd appreciate it if you could supply pIC50 values for the items below.
Give bare numbers, as −log10 of the molar value.

Here's what some known entries look like.
compound: C=C(CN1CCN(c2ccc(C(F)(F)F)cc2)CC1)c1ccc(C(=O)Nc2ccccc2N)cc1
assay.value: 4.12

compound: C=C(CN1CCN(c2ccccc2C(F)(F)F)CC1)c1ccc(C(=O)Nc2ccccc2N)cc1
assay.value: 5.39

Quick one: give me pIC50 for each item below, same order please.
1. C=C(CN1CCN(c2cccc(C(F)(F)F)c2)CC1)c1ccc(C(=O)Nc2ccccc2N)cc1
2. Nc1ccccc1NC(=O)c1ccc(CNC(=O)OCc2cccnc2)cc1 [Compound 1, Entinostat, reference compound]
3. C=C(CN1CCN(c2cccc(C(F)(F)F)n2)CC1)c1ccc(C(=O)Nc2ccccc2N)cc1

OUTPUT:
[5.84, 5.99, 6.25]

----------
I'd appreciate it if you could supply pIC50 values for the items below.
System: 786-0
assay.notes: NCI-60 cytotoxicity screen
Assay type: cell-based
conditions.used: Homo sapiens, NCI-60, 48 h, renal
Source text: Compounds 3–7 were submitted to the US National Cancer Institute (NIH, Bethesda, Maryland) for screening against the NCI-60 panel of human cancer cell lines, as per standard protocol.
Numbers only, as −log10 of the molar value.

compound: C=C(CN1CCN(c2cccc(C(F)(F)F)c2)CC1)c1ccc(C(=O)Nc2ccccc2N)cc1
test.target: 786-0
pIC50: 5.96
//
compound: C=C(CN1CCN(c2ccccc2C(F)(F)F)CC1)c1ccc(C(=O)Nc2ccccc2N)cc1
test.target: 786-0
pIC50: 5.63
//
compound: Nc1ccccc1NC(=O)c1ccc(CNC(=O)OCc2cccnc2)cc1 [Compound 1, Entinostat, reference compound]
test.target: 786-0
pIC50: 5.30
//
compound: C=C(CN1CCN(c2cccc(C(F)(F)F)n2)CC1)c1ccc(C(=O)Nc2ccccc2N)cc1
test.target: 786-0
pIC50: 5.71
//
compound: C=C(CN1CCN(c2ccc(C(F)(F)F)cc2)CC1)c1ccc(C(=O)Nc2ccccc2N)cc1
test.target: 786-0
pIC50: 5.55

INPUT: Respond only with pIC50 recorded for "C=C(CN1CCN(c2ccccn2)CC1)c1ccc(C(=O)Nc2ccccc2N)cc1"
OUTPUT: 5.92
